The measurements presented in this section are drawn from ChEMBL document CHEMBL1124871.

Test system: Human immunodeficiency virus
Test: Inhibitory activity against HIV in Alex cells
Type: functional, organism-based
Conditions: Human immunodeficiency virus 1, Alex
pIC50: −log10 of the molar value.

>  <COMPOUND>
CSc1c(C(N)=O)c2c(N)ncnc2n1CC(O)CO (stereo not given)

>  <pIC50>
< 3.70

$$$$
>  <COMPOUND>
N#Cc1cn(COCCO)c2ncnc(N)c12

>  <pIC50>
4.34

$$$$
>  <COMPOUND>
CSc1c(C(N)=O)c2c(N)ncnc2n1CC(O)CCO (stereo not given)

>  <pIC50>
< 3.70

$$$$
>  <COMPOUND>
NC(=O)c1cn(COCCO)c2ncnc(N)c12

>  <pIC50>
< 3.70

$$$$
>  <COMPOUND>
CSc1c(C#N)c2c(O)nc(N)nc2n1COC(CO)CO

>  <pIC50>
< 3.70

$$$$

* * *

Tested on: Human alphaherpesvirus 2
Assay: Inhibitory activity against herpes simplex virus
Type: functional, organism-based

>  <QUERY_SMILES>
Nc1nc2c(ncn2COC(CO)CO)c(=O)[nH]1

>  <IC50, µM>
32

$$$$
